Target: Beta-lactamase (Escherichia coli (strain K12)) (UniProt P00811)
Sequence (P00811 whole entry, looked up): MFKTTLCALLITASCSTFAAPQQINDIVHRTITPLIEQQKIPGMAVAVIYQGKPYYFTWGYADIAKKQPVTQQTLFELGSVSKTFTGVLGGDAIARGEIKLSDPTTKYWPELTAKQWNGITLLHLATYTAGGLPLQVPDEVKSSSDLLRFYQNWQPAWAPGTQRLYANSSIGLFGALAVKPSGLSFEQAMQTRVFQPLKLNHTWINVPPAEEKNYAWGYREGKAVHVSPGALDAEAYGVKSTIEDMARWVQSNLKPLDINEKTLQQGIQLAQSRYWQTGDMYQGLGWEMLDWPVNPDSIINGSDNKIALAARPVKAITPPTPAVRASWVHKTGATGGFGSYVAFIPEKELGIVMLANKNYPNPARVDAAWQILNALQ
Assay: Promiscuous and Specific Inhibitors of AmpC Beta-Lactamase (assay without detergent)
Conditions: AmpC nitrocefin hydrolysis, absorbance 480 nm, no detergent; series mostly up to 28.7 µM
Experimental: NIH Molecular Libraries Screening Centers Network [MLSCN] NIH Chemical Genomics Center [NCGC] PI Name: Shoichet, Brian K. This aggregation profiling approach exploits the sensitivity of aggregate formation to detergent. Inhibition of b-lactamase is measured in the presence and absence of 0.01% Triton X-100. […] A screen of 1,030 compounds was performed in Brian Shoichet's lab in 96-well format. AmpC activity was measured by following the absorbance at 480 nm. […]
Among all 71,000 compounds or so, about 1,300 (1.8%) were called active. The call rests on the fitted dose curve. For the sample, actives were picked, then their nearest neighbours and some compounds at random.
Outcomes you can answer with include only these: class 1 (active), class 0 (inactive)

Reference set, count: 2
1. CCn1c(=O)cc(OCC(=O)NCCCN2CCN(c3cccc(Cl)c3)CC2)c2ccccc21 ... class 0
2. CCOC(=O)N1CCN(C(=O)c2cc3c(-c4ccc(Cl)cc4)nn(C)c3s2)CC1 ... class 1

QUERY: # outcome recorded in this test, key = O=C(NCc1ccc2c(c1)OCO2)c1cc2c(s1)CS(=O)(=O)C2
RESULT: class 1

QUERY: # outcome recorded in this test, key = Cc1nc2ccc(S(=O)(=O)NC(C(=O)N3CCCCCC3)C(C)C)cc2s1 (stereo unspecified)
RESULT: class 1

QUERY: # outcome recorded in this test, key = Cc1noc(C)c1S(=O)(=O)N1CCCC(C(=O)Nc2nccs2)C1 (stereo unspecified)
RESULT: class 1

QUERY: # outcome recorded in this test, key = Cn1c(C(=O)NCCc2ccsc2)cc2c(=O)n(C)c3ccccc3c21
RESULT: class 0

QUERY: # outcome recorded in this test, key = N#CC1=C(N)Oc2cc(O)ccc2C1C1CCCCC1 (stereo unspecified)
RESULT: class 0

QUERY: # outcome recorded in this test, key = COC(=O)c1sc(NC(=O)c2ccc(OC)cc2OC)nc1C
RESULT: class 0

QUERY: # outcome recorded in this test, key = COc1cccc(NC(=O)Nc2nnc(N3CCCCC3C)s2)c1 (stereo unspecified)
RESULT: class 1

QUERY: # outcome recorded in this test, key = CCCC1C(c2ccccc2)C(C#N)(C#N)C2(C#N)CC1(N)NC2=O (stereo unspecified)
RESULT: class 0

QUERY: # outcome recorded in this test, key = O=C(NCc1ccco1)c1nc2ncccn2n1
RESULT: class 0

QUERY: # outcome recorded in this test, key = CC1CCCC(C)N1CCCNC(=O)c1cc2c(=O)n(C)c3ccccc3c2n1C (stereo unspecified)
RESULT: class 1
